- Experimental System: UniProtKB P03951
- Sequence (P03951 388-625): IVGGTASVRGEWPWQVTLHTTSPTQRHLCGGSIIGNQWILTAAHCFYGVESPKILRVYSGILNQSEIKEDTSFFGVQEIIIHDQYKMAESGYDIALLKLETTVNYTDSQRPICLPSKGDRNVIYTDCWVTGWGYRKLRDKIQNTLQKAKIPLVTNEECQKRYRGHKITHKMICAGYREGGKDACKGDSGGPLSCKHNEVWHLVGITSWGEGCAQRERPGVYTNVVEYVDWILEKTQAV
- Sequence (P03951 19-387 partner): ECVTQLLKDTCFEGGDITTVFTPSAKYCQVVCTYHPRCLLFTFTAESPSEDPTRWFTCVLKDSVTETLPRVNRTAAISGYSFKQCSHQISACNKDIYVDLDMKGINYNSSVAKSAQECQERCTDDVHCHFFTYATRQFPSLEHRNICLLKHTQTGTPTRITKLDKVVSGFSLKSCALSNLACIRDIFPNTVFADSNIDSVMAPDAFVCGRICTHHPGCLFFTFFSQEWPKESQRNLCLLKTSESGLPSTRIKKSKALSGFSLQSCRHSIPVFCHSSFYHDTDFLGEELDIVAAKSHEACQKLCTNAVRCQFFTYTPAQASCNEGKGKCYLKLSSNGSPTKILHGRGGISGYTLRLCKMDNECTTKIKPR
- Assay Name: Factor XIa enzyme inhibition assay (chromogenic substrate S-2366)
- Protocol Conditions: read-out: Factor XIa Ki; measured at 25° C.
Counter-ions that a name gives are not always drawn.

[
  {
    "Molecule": "NS(=O)(=O)c1cccc(-c2cccc3c2CCN(C(=O)c2cn(-c4cccc(Cl)c4F)nn2)C3C(=O)Nc2ccc(C(=O)O)cc2)c1 (stereo not drawn) [Example 155]",
    "Ki": "< 5 nM"
  },
  {
    "Molecule": "O=C(O)c1ccc(NC(=O)C2c3cccc(N4CCC(N5CCCC5=O)CC4)c3CCN2C(=O)c2cn(-c3cccc(Cl)c3F)cn2)cc1 (stereo not drawn) [Example 92, TFA salt]",
    "Ki": "< 5 nM"
  },
  {
    "Molecule": "O=C(O)c1ccc(NC(=O)C2c3cccc(-c4cccnc4)c3CCN2C(=O)c2cn(-c3cccc(Cl)c3F)nn2)cc1 (stereo not drawn) [Example 33, TFA salt]",
    "Ki": "< 5 nM"
  },
  {
    "Molecule": "COC1CCN(c2cccc3c2CCN(C(=O)c2cn(-c4cccc(Cl)c4F)nn2)C3C(=O)Nc2ccc(C(N)=O)cc2)CC1 (stereo not drawn) [Example 335, TFA salt]",
    "Ki": "< 5 nM"
  },
  {
    "Molecule": "Cc1c(C(=O)N2CCc3c(-c4ccc(C(=O)NCCN(C)C)cc4)cccc3C2C(=O)Nc2ccc(C(=O)O)cc2)nnn1-c1cccc(Cl)c1F (stereo not drawn) [Example 7, TFA salt]",
    "Ki": "< 5 nM"
  },
  {
    "Molecule": "CN(C)C(=O)C1CCN(c2cccc3c2CCN(C(=O)C2CC(c4cccc(Cl)c4F)=NO2)C3C(=O)Nc2ccc(C(=O)O)cc2)CC1 (single isomer, unassigned) [Example 278, TFA salt]",
    "Ki": "< 5 nM"
  }
]

Entry source: patent US9738655B2
